System: HOP-92 NSCLC
Assay: NCI tumour cell line growth inhibition, 48 h
quantity_name: TGI

Asked: What TGI appears in the records for this compound with HOP-92 NSCLC? `COc1ccc(Cc2nc3cc(Cl)ccc3o2)cc1`
Given back: > 100 µM

Asked: What TGI appears in the records for this compound with HOP-92 NSCLC? CC12Oc3ccc4ccccc4c3C1c1c(ccc3ccccc13)O2 (stereo unspecified)
Given back: > 100 µM

Asked: What TGI appears in the records for this compound with HOP-92 NSCLC? `COC(=O)/C=C1/OC(c2ccc(Br)cc2)=C(Br)C1=O`
Given back: 25.2 µM

Asked: What TGI appears in the records for this compound with HOP-92 NSCLC? `COc1cc(-c2nn(C)nc2-c2cc3ccccc3s2)cc(OC)c1OC`
Given back: 78.7 µM

Asked: What TGI appears in the records for this compound with HOP-92 NSCLC? `O=C(Nc1cccnc1)c1cccs1`
Given back: > 100 µM

Asked: What TGI appears in the records for this compound with HOP-92 NSCLC? `CCOC(=O)c1c(Nc2ccccc2)sc2cccnc12`
Given back: > 29.3 µM

---

Tested on: CAKI-1 renal
Experiment: NCI tumour cell line growth inhibition, 48 h
quantity_name: TGI

Asked: Recorded TGI for `CCNC(=O)Nc1ccc(-c2nc3c(c(N4CCOC[C@@H]4C)n2)CCN(C2COC2)C3)cc1` , please?
Given back: > 31.5 µM

Asked: Recorded TGI for O=C1OCC2=C1C(c1cccc([N+](=O)[O-])c1)c1cc3c(cc1N2CCO)CCC3 (stereo unspecified) , please?
Given back: > 38 µM

Asked: Recorded TGI for `COc1cc(O)c2c(=O)c3ccccc3n(C)c2c1` , please?
Given back: > 100 µM

Asked: Recorded TGI for `C[C@@]12C[C@@H](c3ccccc3O1)N1CCSC1=N2` , please?
Given back: > 100 µM

Asked: Recorded TGI for `Clc1ccc(NCc2nnc(COc3ccc(OCc4nnc(CNc5ccc(Cl)cc5)o4)c(Cl)c3)o2)cc1` , please?
Given back: > 100 µM

Asked: Recorded TGI for `O=C(/C=C\c1cccc([N+](=O)[O-])c1)c1ccccc1` , please?
Given back: 5.8 µM

Asked: Recorded TGI for `COc1ccc2cc(-c3ccc(OC)c(OC)c3)c(=O)oc2c1` , please?
Given back: > 100 µM

Asked: Recorded TGI for COC1=C(C)C(=O)C2C(C1=O)C(c1ccc(OC)c(OC)c1)[C@H]2C (stereo partly specified) , please?
Given back: > 100 µM

Asked: Recorded TGI for COc1ccc(C2Cc3cc(OC)c(OC)c(OC)c3C2=O)cc1 (stereo unspecified) , please?
Given back: > 100 µM

Asked: Recorded TGI for `Cn1c(O)c(C=N)c(=O)n(C)c1=O` , please?
Given back: > 100 µM

Asked: Recorded TGI for CC1C(=O)CCC1C(Sc1ccccc1)(Sc1ccccc1)Sc1ccccc1 (stereo unspecified) , please?
Given back: > 100 µM

---

Tested on: KM12 colon
Test: NCI tumour cell line growth inhibition, 48 h
quantity_name: TGI (µM)
// note: answer is a bare numeric in µM

Asked: Recorded TGI for `Cc1cc(=O)cc2sc3cc(Cl)ccc3nc1-2` , please?
Given back: 24.5

Asked: Recorded TGI for `O=C(O[C@H]1CN[C@H](C#Cc2cc3ncnc(Nc4ccc(Cc5ccccc5)cc4)c3s2)C1)N1CCOCC1` , please?
Given back: 8.72

Asked: Recorded TGI for `O=C(/C=C/c1ccccc1Cl)c1ccc(O)cc1` , please?
Given back: 11.6

Asked: Recorded TGI for `CSc1nc(C)cc(N(C)c2ccccc2)n1` , please?
Given back: 20

Asked: Recorded TGI for `CNC(=O)c1cc(Oc2ccc3nc(NC(=O)c4cc(C(F)(F)F)cc(C(F)(F)F)c4)sc3c2)ccn1` , please?
Given back: 11

Asked: Recorded TGI for `O=[N+]([O-])c1ccc(Oc2cccnc2)c([N+](=O)[O-])c1` , please?
Given back: 6.68

---

Test system: HOP-92 NSCLC
Assay: NCI tumour cell line growth inhibition, 48 h
quantity_name: TGI (µM)
// note: answer is a bare numeric in µM

Asked: Recorded TGI for `CCOc1ccc(/C=N/Nc2cc(C)nc3ccc(Cl)cc23)cc1` , please?
Given back: 7.08

Asked: Recorded TGI for CC(C)Cc1ccc(C(C)/C=C2\CCC(CN3CCOCC3)C2=O)cc1 (stereo unspecified) , please?
Given back: 39.7

Asked: Recorded TGI for `COc1ccc(Nc2nc(NCc3ccccc3)c3ccccc3n2)cc1` , please?
Given back: 12.6

Asked: Recorded TGI for `S=C(Nc1ccc(-c2nc3ccccc3s2)cc1)Nc1ccccn1` , please?
Given back: 64.1

Asked: Recorded TGI for `C#CCn1c(=O)c(C)cn(/C(=C/C(=O)OCC)C(=O)OCC)c1=O` , please?
Given back: 8.5

---

Tested on: SF-295 CNS
Assay: NCI tumour cell line growth inhibition, 48 h
quantity_name: GI50

Asked: What GI50 appears in the records for this compound with SF-295 CNS? `Cc1nc(NC(=O)COc2cccc(/C=C3\COc4ccccc4C3=O)c2)sc1C`
Given back: 1.64 µM

Asked: What GI50 appears in the records for this compound with SF-295 CNS? `COc1ccc(C2=C(Br)C(=O)OC2)cc1Cl`
Given back: 34 µM

Asked: What GI50 appears in the records for this compound with SF-295 CNS? `Clc1ccc(N/N=C/c2ccccn2)nc1`
Given back: 0.452 µM

Asked: What GI50 appears in the records for this compound with SF-295 CNS? `COc1ccc(Nc2nc(NCc3ccccc3)c3ccccc3n2)cc1`
Given back: 4.78 µM

Asked: What GI50 appears in the records for this compound with SF-295 CNS? `O=Cc1ncc(-c2ccc(C(F)(F)F)cc2)c(NC2CCCCCC2)n1`
Given back: > 10 µM

Asked: What GI50 appears in the records for this compound with SF-295 CNS? `CN(C)c1cc2c(Nc3ccc4nc(Cc5ccccc5)[nH]c4c3)ncnc2cn1`
Given back: > 12.7 µM

Asked: What GI50 appears in the records for this compound with SF-295 CNS? `CNC(=O)c1cc(Oc2ccc3nc(NC(=O)c4cc(C(F)(F)F)cc(C(F)(F)F)c4)sc3c2)ccn1`
Given back: 2.56 µM

Asked: What GI50 appears in the records for this compound with SF-295 CNS? `O=C(Nc1cccnc1)c1cccs1`
Given back: 5.04 µM

Asked: What GI50 appears in the records for this compound with SF-295 CNS? `C[C@H](Nc1ccc(C#N)n(C)c1=O)c1cc2cc(Cl)ccc2[nH]c1=O`
Given back: 26.9 µM

Asked: What GI50 appears in the records for this compound with SF-295 CNS? `CCS(=O)(=O)c1ccc(OC)c(Nc2ncc(-c3cccc(-c4ccccc4F)c3)o2)c1`
Given back: 10.1 µM

Asked: What GI50 appears in the records for this compound with SF-295 CNS? `O=[N+]([O-])c1ccc(Oc2cccnc2)c([N+](=O)[O-])c1`
Given back: 18.6 µM

Asked: What GI50 appears in the records for this compound with SF-295 CNS? COC(=O)C1=C2C3=C(C(=O)c4ccccc4C3=O)N(Cc3ccccc3)C2(OC(C)=O)C=CC1=O (stereo not given)
Given back: 6.3 µM

Asked: What GI50 appears in the records for this compound with SF-295 CNS? `CCCCCCCCCCCCCCCCCC(=O)[O][Sn]([CH2]CCC)([CH2]CCC)[CH2]CCC`
Given back: 0.162 µM

Asked: What GI50 appears in the records for this compound with SF-295 CNS? `CCOc1ccc(/C=N/Nc2cc(C)nc3ccc(Cl)cc23)cc1`
Given back: 1.76 µM

Asked: What GI50 appears in the records for this compound with SF-295 CNS? COc1cccc(C2=NN(C(C)=O)C(c3cc(OC)c(OC)c(OC)c3)C2)c1 (stereo not given)
Given back: 0.576 µM

Asked: What GI50 appears in the records for this compound with SF-295 CNS? `O=C(/C=C\c1cccc([N+](=O)[O-])c1)c1ccccc1`
Given back: 7.68 µM

Asked: What GI50 appears in the records for this compound with SF-295 CNS? `O=C(Nc1cccc(-n2cc(-c3ccncc3)c(-c3cc(O)cc(Cl)c3)n2)c1)Nc1ccc(Cl)c(Cl)c1`
Given back: 1.7 µM

Asked: What GI50 appears in the records for this compound with SF-295 CNS? `COc1ccc(S(=O)(=O)Nc2cc(/C=C\c3cc(OC)c(OC)c(OC)c3)cc(OC)c2OC)cc1OC`
Given back: 0.47 µM

Asked: What GI50 appears in the records for this compound with SF-295 CNS? `NC(=O)Cc1ccccc1Oc1nccc(-c2c(-c3ccc(F)cc3)ncn2C2CCNCC2)n1`
Given back: > 25 µM

Asked: What GI50 appears in the records for this compound with SF-295 CNS? `CCCCN(CCCC)c1cc(C(=O)CCCCCN)c2ccccc2n1`
Given back: 1.86 µM
